The measured values listed here are drawn from ChEMBL document CHEMBL4043307.

Experiment: Unbound brain-to-plasma concentration ratio in CD rat at 1 mg/kg, po as cassette dose after 2 hrs by LC-MS/MS method
Assay type: ADME, organism-based
Details: brain and plasma, read-out: K(p,uu,brain)
Overview of reported Kp uu at 2 h across a group of molecules:
Please reply with the value in numeric form only.

MOLECULE	Kp uu at 2 h
CO[C@H]1CC[C@]2(CC1)Cc1ccc(-c3cc(Cl)cc(C#N)c3)cc1[C@@]21COC(N)=N1	0.21

Inquiry: Item COc1cc(C#N)cc(-c2ccc3c(c2)[C@@]2(COC(N)=N2)[C@]2(CC[C@H](OC)CC2)C3)c1 has what recorded Kp uu at 2 h?
Reply text: 0.07
